Tested on: CCRIS mutagenicity, Ames/micronucleus/aberration tests
procedure.text: CCRIS mutagenicity studies
condition.summary: Test System: UDS HUMAN HEPATOCYTES; Strain/Indicator: THY INCORP; Metabolic Activation: NONE; Method: AUTORADIOGRAPHY
Calls of active or inactive are those of the source. The rule behind the calls is not given here.
Classes used: label 1 for active, label 0 for inactive

CC(C)NCC(O)c1ccc(NS(C)(=O)=O)cc1 (stereo not given)    label 0
CC(C)(C)NCC(O)COc1cccc2c1CC(O)C(O)C2 (stereo not given)    label 0
C[C-](C)[N+](=O)[O-]    label 1
Cc1cnc2ccc3c(nc(N)n3C)c2n1    label 1
CC(C)N(CC(O)c1ccc(NS(C)(=O)=O)cc1)N=O (stereo not given)    label 1
